target.under.test: p110α/p85α (Homo sapiens (Human), UniProt P42336)
Sequence (P42336 whole entry): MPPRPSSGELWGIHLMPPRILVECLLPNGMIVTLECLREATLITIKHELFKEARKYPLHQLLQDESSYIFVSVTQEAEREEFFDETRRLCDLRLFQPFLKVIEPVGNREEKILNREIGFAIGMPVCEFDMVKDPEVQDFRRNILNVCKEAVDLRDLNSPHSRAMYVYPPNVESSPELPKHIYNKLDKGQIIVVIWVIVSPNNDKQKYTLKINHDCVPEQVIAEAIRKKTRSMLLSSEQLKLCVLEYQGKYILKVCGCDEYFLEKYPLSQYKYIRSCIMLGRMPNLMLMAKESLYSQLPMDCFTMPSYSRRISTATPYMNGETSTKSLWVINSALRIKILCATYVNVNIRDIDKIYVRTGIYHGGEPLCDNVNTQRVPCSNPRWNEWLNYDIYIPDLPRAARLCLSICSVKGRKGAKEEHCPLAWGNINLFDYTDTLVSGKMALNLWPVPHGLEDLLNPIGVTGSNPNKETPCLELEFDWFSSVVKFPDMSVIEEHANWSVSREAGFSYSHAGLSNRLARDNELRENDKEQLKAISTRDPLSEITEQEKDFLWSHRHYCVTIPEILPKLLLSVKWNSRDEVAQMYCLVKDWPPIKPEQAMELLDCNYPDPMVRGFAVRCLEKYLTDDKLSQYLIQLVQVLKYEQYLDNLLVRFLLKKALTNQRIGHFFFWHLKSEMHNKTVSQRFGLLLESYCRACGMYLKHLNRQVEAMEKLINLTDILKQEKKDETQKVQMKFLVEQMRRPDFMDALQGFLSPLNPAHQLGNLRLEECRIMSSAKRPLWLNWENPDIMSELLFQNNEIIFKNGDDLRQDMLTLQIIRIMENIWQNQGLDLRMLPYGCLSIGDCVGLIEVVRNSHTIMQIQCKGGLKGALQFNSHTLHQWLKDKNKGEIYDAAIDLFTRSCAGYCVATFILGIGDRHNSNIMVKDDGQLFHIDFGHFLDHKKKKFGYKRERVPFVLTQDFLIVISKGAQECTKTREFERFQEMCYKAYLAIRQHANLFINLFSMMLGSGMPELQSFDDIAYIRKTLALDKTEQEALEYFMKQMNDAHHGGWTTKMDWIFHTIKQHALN
Sequence (P27986 whole entry partner): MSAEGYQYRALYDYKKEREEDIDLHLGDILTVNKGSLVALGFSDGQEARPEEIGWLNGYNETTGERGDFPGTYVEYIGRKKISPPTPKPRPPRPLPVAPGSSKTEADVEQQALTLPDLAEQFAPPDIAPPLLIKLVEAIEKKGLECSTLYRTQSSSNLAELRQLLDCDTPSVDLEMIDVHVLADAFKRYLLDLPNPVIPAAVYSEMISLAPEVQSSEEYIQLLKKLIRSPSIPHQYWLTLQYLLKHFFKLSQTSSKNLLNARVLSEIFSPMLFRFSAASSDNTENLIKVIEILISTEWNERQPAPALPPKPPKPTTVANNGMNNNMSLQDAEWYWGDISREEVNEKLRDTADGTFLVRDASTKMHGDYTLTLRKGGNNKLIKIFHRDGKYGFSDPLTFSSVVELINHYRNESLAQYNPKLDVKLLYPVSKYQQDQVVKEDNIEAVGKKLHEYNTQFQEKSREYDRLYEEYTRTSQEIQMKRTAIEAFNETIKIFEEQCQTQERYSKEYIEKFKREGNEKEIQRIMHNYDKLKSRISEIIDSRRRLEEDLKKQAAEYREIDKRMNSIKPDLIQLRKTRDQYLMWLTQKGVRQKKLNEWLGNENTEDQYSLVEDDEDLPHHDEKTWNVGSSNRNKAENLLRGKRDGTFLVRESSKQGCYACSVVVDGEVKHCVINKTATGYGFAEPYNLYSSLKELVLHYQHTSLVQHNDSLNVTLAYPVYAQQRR
measurement.protocol: PI 3-Kinase (human) HTRF assay, p110α/p85α
Assay type: biochemical
assay.conditions: read-out: PI3K α IC50
pIC50: −log10 of the molar value.
measurement.type: pIC50

Previously resolved entries follow.
Indicate the recorded pIC50 value for this compound: "Nc1nc2cc(-c3ccc4ncc(C(=O)NCCO)n4c3)ccc2o1"
> 7.00

Indicate the recorded pIC50 value for this compound: "N#Cc1cnc2ccc(-c3ccc4oc(N)nc4c3)cc2c1"
> 6.00

Indicate the recorded pIC50 value for this compound: "Nc1nc2cc(-c3cc4nccc(-c5ccncc5)c4s3)ccc2o1"
> 5.00

Indicate the recorded pIC50 value for this compound: "CC(=O)N1CCC(N(C)c2ncnc3ccc(-c4ccc5oc(N)nc5c4)cc23)CC1"
> 7.00

Next, consider the following compound.
Indicate the recorded pIC50 value for this compound: "Nc1nc2cc(-c3ccc4ncc(NC5CCOCC5)nc4c3)ccc2o1"
> 7.00
